pKd listing for selected binders.
Molecular target: T1, integrin alphavbeta3 (human, UniProt P06756)
T1 chain 1: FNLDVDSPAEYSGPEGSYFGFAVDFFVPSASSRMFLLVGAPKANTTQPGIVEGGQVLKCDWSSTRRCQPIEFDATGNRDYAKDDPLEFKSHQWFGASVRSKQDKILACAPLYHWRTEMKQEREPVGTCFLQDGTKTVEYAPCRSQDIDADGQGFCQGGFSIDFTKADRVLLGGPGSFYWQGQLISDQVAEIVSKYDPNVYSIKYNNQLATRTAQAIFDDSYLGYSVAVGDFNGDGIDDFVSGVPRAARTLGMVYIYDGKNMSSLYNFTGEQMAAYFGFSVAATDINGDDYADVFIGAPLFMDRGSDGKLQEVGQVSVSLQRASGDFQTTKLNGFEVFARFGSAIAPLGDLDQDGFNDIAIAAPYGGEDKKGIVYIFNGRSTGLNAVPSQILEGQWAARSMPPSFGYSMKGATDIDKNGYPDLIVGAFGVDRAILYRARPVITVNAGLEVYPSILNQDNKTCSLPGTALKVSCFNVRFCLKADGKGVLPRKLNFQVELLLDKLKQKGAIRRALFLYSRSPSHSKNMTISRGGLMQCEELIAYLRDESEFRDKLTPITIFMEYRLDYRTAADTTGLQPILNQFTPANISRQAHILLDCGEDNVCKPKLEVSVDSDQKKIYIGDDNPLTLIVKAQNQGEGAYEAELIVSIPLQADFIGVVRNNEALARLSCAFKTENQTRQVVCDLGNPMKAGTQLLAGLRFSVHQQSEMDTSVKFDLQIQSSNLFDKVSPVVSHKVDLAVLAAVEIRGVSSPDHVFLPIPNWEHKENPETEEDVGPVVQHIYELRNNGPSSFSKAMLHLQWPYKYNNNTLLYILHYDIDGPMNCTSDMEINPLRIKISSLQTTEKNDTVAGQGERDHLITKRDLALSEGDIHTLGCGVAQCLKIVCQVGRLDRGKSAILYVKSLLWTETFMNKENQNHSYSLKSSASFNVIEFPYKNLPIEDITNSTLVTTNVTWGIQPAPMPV
T1 chain 2: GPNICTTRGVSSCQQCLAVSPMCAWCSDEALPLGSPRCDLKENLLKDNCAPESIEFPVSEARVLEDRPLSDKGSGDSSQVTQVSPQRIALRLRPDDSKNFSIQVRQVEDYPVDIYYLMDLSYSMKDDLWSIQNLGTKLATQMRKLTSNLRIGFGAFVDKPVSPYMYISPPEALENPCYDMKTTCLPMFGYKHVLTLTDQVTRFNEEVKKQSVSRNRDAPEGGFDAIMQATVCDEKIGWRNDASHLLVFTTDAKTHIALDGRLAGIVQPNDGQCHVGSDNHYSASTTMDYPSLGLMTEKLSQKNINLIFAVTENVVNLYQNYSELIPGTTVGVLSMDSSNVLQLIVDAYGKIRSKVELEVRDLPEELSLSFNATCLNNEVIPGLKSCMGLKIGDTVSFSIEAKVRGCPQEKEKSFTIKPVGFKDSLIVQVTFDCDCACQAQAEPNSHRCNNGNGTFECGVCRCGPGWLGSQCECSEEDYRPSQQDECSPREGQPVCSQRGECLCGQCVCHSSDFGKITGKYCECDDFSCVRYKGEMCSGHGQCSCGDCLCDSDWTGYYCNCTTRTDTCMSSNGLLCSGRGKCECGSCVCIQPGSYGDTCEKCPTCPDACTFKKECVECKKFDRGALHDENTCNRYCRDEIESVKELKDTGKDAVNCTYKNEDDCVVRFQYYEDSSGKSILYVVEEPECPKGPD
Assay: SPR, mAb captured on Protein A
Formally, pKd is defined as -log10 of the concentration c, with c in mol/L.

Using known records, supply pKd for B9HL1G1 (antibody) chain 1: QVQLVQSGAEVKKPGASVKVSCKASGYTFSSYWIEWVKQAPGQGLEWIGEILPRSGNTNYNEKFKGKATFTADTSTSTAYMELSSLRSEDTAVYYCSSRGVRGSMDYWGQGTLVTVSS chain 2: DIQMTQSPSSLSASVGDRVTITCRSSQDISNFLNWYQQKPGKAPKLLIYYTSTLHSGVPSRFSGSGSGTDYTLTISSLQPEDFATYYCQQGNTASLDVRWRY 8.09

Using known records, supply pKd for B9HH1G1/HL3K (antibody, V domains shown) VH: QVQLVQSGAEVKKPGASVKVSCKASGYTFSSYWIEWVKQAPGQGLEWIGEILPRSGNTNYNEKFKGKATFTADTSTSTAYMELSSLRSEDTAVYYCSSRGVRGSMDYWGQGTLVTVSS VL: DIQMTQSPSSLSASVGDRVTITCRSSQDISNFLNWYQQKPGKAPKLLIYYTSTLHSGVPSRFSGSGSGTDYTLTISSLQPEDFATYYCQQGNTLPWTFGGGTNVE 8.16

Using known records, supply pKd for B9HL1G4 (antibody) chain 1: QVQLVQSGAEVKKPGASVKVSCKASGYTFSSYWIEWVKQAPGQGLEWIGEILPRSGNTNYNEKFKGKATFTADTSTSTAYMELSSLRSEDTAVYYCSSRGVRGSMDYWGQGTLVTVSS chain 2: DIQMTQSPSSLSASVGDRVTITCRSSQDISNFLNWYQQKPGKAPKLLIYYTSTLHSGVPSRFSGSGSGTDYTLTISSLQPEDFATYYCQQGNTASLDVRWRY 8.27

Using known records, supply pKd for B9HL2G1 (antibody, V domains shown) VH: QVQLVQSGAEVKKPGASVKVSCKASGYTFSSYWIEWVKQAPGQGLEWIGEILPRSGNTNYNEKFKGKATFTADTSTSTAYMELSSLRSEDTAVYYCSSRGVRGSMDYWGQGTLVTVSS VL: DIQMTQSPSSLSASVGDRVTITCRSSQDISNFLNWYQQKPGKAPKLLIYYTSTLHSGVPSRFSGSGSGTDYTFTISSLQPEDIATYYCQQGNTLPWTFGGGT 8.15

src = patent US7087405
